system: live Wuhan (Influenza A/Wuhan/359/95, H3N2); assay: ELISA for anti-Wuhan antibodies (mouse sera 1:100); type: in vivo, mice; details: sera 1:100; dose per injection 20 μg; Pre-Bleed; averaged results
Reported Anti-Wuhan Absorbance Pre-Bleed (group average) values are given for each entry in this list.

GNLFIAPGNLFIAPQYIKANSKFIGITEGNLFIAP [Peptide 5907]    0.088
DWSGYSGSFVQHPELTGL [Peptide 5912]    0.076
GNLFIAP [Peptide 5910]    0.075
HYEECSCY [Peptide 5911]    0.072

Incoming: Item under review: KSCINRCFYVELIRGR [Peptide 5914] . Reported Anti-Wuhan Absorbance Pre-Bleed (group average)?
Outgoing: 0.094

###

System: peptide corresponding to the peptide-BSA conjugate used for injection
Assay: ELISA for anti-peptide antibodies (individual mouse sera 1:100)
Format: in vivo, mice
Conditions: group average; mice, 20 μg per injection; day 42
Method: Individual sera were tested at a final dilution of 1:100 (in PBS-T) on Nunc Maxisorp® plates coated with the peptide corresponding to the peptide-BSA conjugate used for injection, at a concentration of 1 μg/ml in PBS (100 μl/well). […] Absorbance was determined at 450 nm.
Readout type: Average Absorbance Values of sera for tested peptides, Day 42
// response body must contain only the number

Use the examples below as a reference point.
GNLFIAP [Peptide 5910]    0.237
KSCINRCFYVELIRGR [Peptide 5914]    0.411
DWSGYSGSFVQHPELTGL [Peptide 5912]    0.155
GNLFIAPGNLFIAPQYIKANSKFIGITEGNLFIAP [Peptide 5907]    0.165

Kindly review the next substance as well.
Incoming: Entry HYEECSCY [Peptide 5911] : reported Average Absorbance Values of sera for tested peptides, Day 42 = ?
Outgoing: 0.342

###

system: peptide corresponding to the peptide-BSA conjugate used for injection; experiment: ELISA for anti-peptide antibodies (individual mouse sera 1:100); format: in vivo, mice; conditions: group average; mice, 20 μg per injection; day 29
Classify: Met when Average Absorbance Values of sera for tested peptides, Day 29 is strictly less than 0.2; Not met when Average Absorbance Values of sera for tested peptides, Day 29 is not.

Would you please look over these solved cases?
DWSGYSGSFVQHPELTGL [Peptide 5912]    Met
GNLFIAPGNLFIAPQYIKANSKFIGITEGNLFIAP [Peptide 5907]    Met

Incoming: Answer whether the substance HYEECSCY [Peptide 5911] has Average Absorbance Values of sera for tested peptides, Day 29 strictly less than 0.2
Outgoing: Not met

Incoming: What do you have for KSCINRCFYVELIRGR [Peptide 5914] ?
Outgoing: Met

###

# key: entry, value: Anti-Wuhan Absorbance Day 42 (group average)
test system: live Wuhan (Influenza A/Wuhan/359/95, H3N2); experiment: ELISA for anti-Wuhan antibodies (mouse sera 1:100); type: in vivo, mice; conditions: sera 1:100; dose per injection 5 μg; Day 42; averaged results
# respond with the number and nothing more

// solved cases for Anti-Wuhan Absorbance Day 42 (group average) follow
DWSGYSGSFVQHPELTGL [Peptide 5912]    0.201
KSCINRCFYVELIRGR [Peptide 5914]    0.210
HYEECSCY [Peptide 5911]    0.157
GNLFIAP [Peptide 5910]    0.291

Here's the next entry for you.
Incoming: Given the entry GNLFIAPGNLFIAPQYIKANSKFIGITEGNLFIAP [Peptide 5907] , report its measured Anti-Wuhan Absorbance Day 42 (group average).
Outgoing: 0.146

Taken from patent US9777045B2.
